Record form. Attribute: melting point. Fill in for each entry.

Consider the reported melting point for these molecules:
Exercise: Quote melting point reported for O=C(NNC(=S)Nc1ccccc1Cl)C1CCCC1 [Compound 3b] please.
Solution: 178 to 180 °C

Exercise: Respond only with melting point recorded for O=C(NNC(=S)Nc1ccccc1Br)C1CCCC1 [Compound 4b]
Solution: 179 to 181 °C

Exercise: Read off the recorded melting point for O=C(NNC(=S)Nc1cccc(I)c1)C1CCCC1 [Compound 6b]
Solution: 173 to 175 °C

Exercise: Note melting point for the molecule shown: O=C(NNC(=S)Nc1cccc([N+](=O)[O-])c1)C1CCCC1 [Compound 1b]
Solution: 134 to 136 °C

Exercise: Return value of melting point for input O=C(NNC(=S)Nc1cc(F)ccc1F)C1CCCC1 [Compound 9b] , no commentary.
Solution: 178 to 180 °C

Give melting point for each listed item.
1. O=C(NNC(=S)Nc1ccccc1I)C1CCCC1 [Compound 5b]
2. O=C(NNC(=S)Nc1ccc([N+](=O)[O-])cc1)C1CCCC1 [Compound 2b]
3. COc1ccccc1NC(=S)NNC(=O)C1CCCC1 [Compound 7b]

Solution:
1: 182 to 184 °C; 2: 170 to 172 °C; 3: 176 to 178 °C

Exercise: Give reported melting point value for Cc1ccc(NC(=S)NNC(=O)C2CCCC2)cc1 [Compound 8b]
Solution: 175 to 177 °C
